measurement_target: human RNR (purified R1 and R2 subunits) (Homo sapiens, UniProt P23921+P31350)
Sequence (P23921 1-792): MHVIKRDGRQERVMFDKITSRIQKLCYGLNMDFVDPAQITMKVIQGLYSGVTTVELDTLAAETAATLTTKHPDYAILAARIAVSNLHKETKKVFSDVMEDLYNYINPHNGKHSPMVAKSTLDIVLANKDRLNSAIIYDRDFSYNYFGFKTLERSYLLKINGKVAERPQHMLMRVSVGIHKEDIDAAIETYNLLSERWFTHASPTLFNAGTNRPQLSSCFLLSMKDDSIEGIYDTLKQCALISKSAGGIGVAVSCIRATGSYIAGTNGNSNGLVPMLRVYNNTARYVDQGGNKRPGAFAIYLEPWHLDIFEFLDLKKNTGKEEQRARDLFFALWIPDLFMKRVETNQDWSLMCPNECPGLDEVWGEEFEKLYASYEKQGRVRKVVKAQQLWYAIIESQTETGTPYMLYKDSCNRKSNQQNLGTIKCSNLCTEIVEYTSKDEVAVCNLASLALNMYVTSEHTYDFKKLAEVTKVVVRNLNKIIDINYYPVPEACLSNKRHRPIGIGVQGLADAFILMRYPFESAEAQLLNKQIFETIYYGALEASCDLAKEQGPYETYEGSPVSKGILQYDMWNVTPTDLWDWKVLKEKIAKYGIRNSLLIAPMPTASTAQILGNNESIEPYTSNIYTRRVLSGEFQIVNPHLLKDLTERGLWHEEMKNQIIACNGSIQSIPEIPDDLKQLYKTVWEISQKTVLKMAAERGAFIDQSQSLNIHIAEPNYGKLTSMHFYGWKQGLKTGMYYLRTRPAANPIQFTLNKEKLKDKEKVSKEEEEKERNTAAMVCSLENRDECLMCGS
Sequence (P31350 1-389): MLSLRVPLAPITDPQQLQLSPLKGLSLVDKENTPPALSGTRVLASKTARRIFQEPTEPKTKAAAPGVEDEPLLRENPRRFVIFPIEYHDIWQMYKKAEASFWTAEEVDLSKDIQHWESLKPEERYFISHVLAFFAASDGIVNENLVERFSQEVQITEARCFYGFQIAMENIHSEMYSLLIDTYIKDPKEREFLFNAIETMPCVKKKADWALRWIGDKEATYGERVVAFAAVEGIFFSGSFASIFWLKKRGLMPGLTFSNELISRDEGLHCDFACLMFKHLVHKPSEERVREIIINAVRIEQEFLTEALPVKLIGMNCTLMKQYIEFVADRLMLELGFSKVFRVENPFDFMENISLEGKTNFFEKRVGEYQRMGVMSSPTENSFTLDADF
assay_comment: In vitro measurement of human RNR inhibitory activity (conversion of CDP to dCDP, HPLC)
experimental_parameters: 100 μM CDP, 37° C., 30 minutes, read-out: RNR Inhibition (IC50)
parameter_measured: pIC50
Note on pIC50: it is the negative log10 of concentration, concentration in mol/L.

The compound identified as N=C(N)NCCN(CCSc1ccc(O)cc1)CCSc1ccc(O)cc1 registered its pIC50 at 5.73

Memo: OC[C@H]1OC(N(CCSc2ccc(O)cc2)CCSc2ccc(O)cc2)[C@H](O)[C@@H](O)[C@@H]1O (stereo partly drawn) , reported pIC50: 5.43

The recorded pIC50 for CCC(=O)N(CCSc1ccc(O)cc1)CCSc1ccc(O)cc1 is 5.32

Kindly note the recorded pIC50 for OCC(O)CN(CCSc1ccc(O)cc1)CCSc1ccc(O)cc1 (stereo not drawn) , which is 5.60

For O=C(N1CCOCC1)N(CCSc1ccc(O)cc1)CCSc1ccc(O)cc1 the compound record lists pIC50 as 7.05

compound O=C(CN(CCSc1ccc(O)cc1)CCSc1ccc(O)cc1)NCCO , pIC50 observed: 6.06

Given item O=C(CCN(CCSc1ccc(O)cc1)CCSc1ccc(O)cc1)N1CCCCC1 , the value recorded as its pIC50 is 6.19

Consider Oc1ccc(SCCN(CCSc2ccc(O)cc2)CCN2CCCCC2)cc1 . Its measured pIC50 is 5.73

Measured pIC50, CC(=O)NCCN(CCSc1ccc(O)cc1)CCSc1ccc(O)cc1 : 5.53

Notebook: Oc1ccc(SCCN(CCSc2ccc(O)cc2)Cc2cccc(O)c2)cc1 , pIC50 read as 6.20

pIC50 measured on NC(=O)NCCN(CCSc1ccc(O)cc1)CCSc1ccc(O)cc1 = 5.85

// pIC50 value for COCCOCCN(CCSc1ccc(O)cc1)CCSc1ccc(O)cc1 : 5.31

Just so you know, measured pIC50 for CS(=O)(=O)NCCN(CCSc1ccc(O)cc1)CCSc1ccc(O)cc1 came out at 6.26

Note to self: pIC50 recorded for NC(=O)C1CCCCN1C(=O)CN(CCSc1ccc(O)cc1)CCSc1ccc(O)cc1 (stereo not drawn) was 5.57

Quick note, pIC50 for O=C(CN(CCSc1ccc(O)cc1)CCSc1ccc(O)cc1)NC(CO)CO landed at 5.92

For record Oc1ccc(SCCN(CCSc2ccc(O)cc2)CCC2OCCCO2)cc1 the listed pIC50 is 6.08

# pIC50 of CNCC(=O)Oc1ccc(SCCN(CCSc2ccc(OC(=O)CNC)cc2)CC(N)=O)cc1 = 6.37

For CC1(C)OC(CSc2ccc(O)cc2)C(CSc2ccc(O)cc2)O1 (stereo not drawn) the compound record lists pIC50 as 6.38

---

System: human ovary cancer A2780 cells
assay_comment: Antineoplastic effect against human ovary cancer A2780 cells transplanted to nude mice
Format: in vivo, nude mice BALB/cAJcl-nu
experimental_parameters: Mus musculus, ip, 96 h; A2780 s.c. in nude mice; 500 mg/kg/day intraperitoneally once a day for 5 days; evaluation day 4; read-out: Antitumor activity T/C
Assign response vs control in vivo at 500 mg/kg/day to each entry below.

response vs control in vivo at 500 mg/kg/day measured on CN(C)C(=O)CCN(CCSc1ccc(O)cc1)CCSc1ccc(O)cc1 = 40%

Reported response vs control in vivo at 500 mg/kg/day of COCCCN(CCSc1ccc(O)cc1)CCSc1ccc(O)cc1 : 50%

The molecule listed as NC(=O)CCN(CCSc1ccc(O)cc1)CCSc1ccc(O)cc1 has a reported response vs control in vivo at 500 mg/kg/day of 53%

Record summary for Oc1ccc(SCCN(CCSc2ccc(O)cc2)Cc2ccncc2)cc1 : reported response vs control in vivo at 500 mg/kg/day = 48%

Lookup result for N#CCN(CCSc1ccc(O)cc1)CCSc1ccc(O)cc1 ; measured response vs control in vivo at 500 mg/kg/day: 54%

Lookup result for CCCN(CCSc1ccc(O)cc1)CCSc1ccc(O)cc1 ; measured response vs control in vivo at 500 mg/kg/day: 50%

---

Test system: HeLa S3 cells
assay_comment: Test for growth inhibition of HeLa S3 cells
Assay type: cell-based
experimental_parameters: Homo sapiens, HeLa S3, 72 h, HeLa S3 cells, 72 hours with test compound, Cell Proliferation Kit II; read-out: Cell growth inhibition (IC50)
Procedure: Test for Growth Inhibition of Hela S3 Cells HeLa S3 cells prepared at 1×10^4 cells/ml in MEM culture medium containing 10% fetal bovine serum and 2 mM glutamine were added to each well of a 96-well microtiter plate (0.1 ml for each well). The cells were cultured at 37° C. in a CO2 incubator for 24 hours, and then 0.05 ml of test compound appropriately diluted with the above medium was added to each well, and then the mixture was cultured at 37° C. in a CO2 incubator for 72 hours. […]
parameter_measured: pIC50
Field pIC50 (float): negative decimal logarithm of the concentration in molar.

# pIC50 (compound: Oc1ccc(SCCOCCOCCOCCOCCSc2ccc(O)cc2)cc1 [Compound 172] ) is 4.71

pIC50 recorded for this compound, CNCC(=O)Oc1ccc(SCCN(CCSc2ccc(OC(=O)CNC)cc2)CC(N)=O)cc1 [Compound 222] , is 6.44

According to the records, this compound O=C(c1ccccn1)N(CCSc1ccc(O)cc1)CCSc1ccc(O)cc1 [Compound 115] displays pIC50 of 5.21

Given item Oc1ccc(SCc2cccc(CSc3ccc(O)cc3)n2)cc1 [Compound 1] , the value recorded as its pIC50 is 5.29

Given item O=C(CSc1ccc(O)cc1)C(=O)CSc1ccc(O)cc1 [Compound 186] , the value recorded as its pIC50 is 4.25

What the record says about NCCN(CCSc1ccc(O)cc1)CCSc1ccc(O)cc1 [Compound 59] : pIC50 is 5.24

Lookup result for Oc1ccc(SCSCSc2ccc(O)cc2)cc1 [Compound 158] ; measured pIC50: 4.90

Query Oc1ccc(SCC(O)COCCOCC(O)CSc2ccc(O)cc2)cc1 (stereo not shown) [Compound 166] yields pIC50 of 4.51

For reference, reported pIC50 for Oc1ccc(SCc2ccccc2CSc2ccc(O)cc2)cc1 [Compound 161] stands at 4.47

# pIC50 of Oc1ccc(SCCN(CCSc2ccc(O)cc2)Cc2ccc3ccccc3n2)cc1 [Compound 101] = 4.89

Data point: O=C(NCCCSc1ccc(O)cc1)C1(C(=O)NCCCSc2ccc(O)cc2)CCCC1 [Compound 192] ; pIC50 = 5.35

Record summary for CN(C)C(=O)CCN(CCSc1ccc(O)cc1)CCSc1ccc(O)cc1 [Compound 79] : reported pIC50 = 5.51

Lab note: measured pIC50 of Oc1ccc(SCCOCCSc2ccc(O)c(F)c2)cc1F [Compound 190] was 4.77

Recorded result, CC1(C)OCC(CN(CCSc2ccc(O)cc2)CCSc2ccc(O)cc2)O1 (stereo not shown) [Compound 200] , pIC50: 5.38

Entry OC[C@@H]1OC(N(CCSc2ccc(O)cc2)CCSc2ccc(O)cc2)[C@H](O)[C@H](O)[C@H]1O (stereo partly shown) [Compound 218] ; pIC50 = 4.63

pIC50 for Oc1ccc(SCCN(CCSc2ccc(O)cc2)Cc2cccnc2)cc1 [Compound 99] is 5.24

The compound listed as O=C(N1CCOCC1)N(CCSc1ccc(O)cc1)CCSc1ccc(O)cc1 [Compound 124] shows pIC50 equal to 5.43

pIC50 measured on O=CN(CCSc1ccc(O)cc1)CCSc1ccc(O)cc1 [Compound 53] = 5.77
